# System: K562 cells
# procedure.text: Cytotoxicity
# Format: cell-based
# measurement.setup: Homo sapiens, K562, 72 h, read-out: Antiproliferative activity IC50, K562 cells
measurement.kind: pIC50
pIC50 is defined as minus the log10 of a concentration measured in mol/L.

Problem: What reported pIC50 corresponds to C=CC(=O)N1CCC[C@@H](n2nc(-c3ccc(Oc4ccccc4)cc3)c3c(N)ncnc32)C1 on K562 cells?
Solution: 6.07
